test system: Escherichia coli; assay: Inhibition of Escherichia coli RNA polymerase at 200 uM by transcription assay
Reported inhibition values for a set of molecules
Measured property: inhibition (%)

>>> print(df.to_string())
                              sample_smiles  measured_property  units  meas_value
0   O=C(Nc1ccccc1C(=O)O)c1cccc(Oc2ccccc2)c1         inhibition      %          23
1  O=C(Nc1ccc(O)cc1C(=O)O)c1ccc(-c2ccccc2)cc1         inhibition      %          17
2  O=C(Nc1ccccc1C(=O)O)c1ccc(-c2ccccc2)c(Oc2ccccc2)c1         inhibition      %         100
3  COc1cc(NC(=O)c2ccc(-c3ccccc3)cc2)c(C(=O)O)cc1OC         inhibition      %          35
4   O=C(Nc1ccccc1C(=O)O)c1ccc(-c2ccccc2)cc1         inhibition      %          31
5  COc1ccc(NC(=O)c2ccc(-c3ccccc3)cc2)c(C(=O)O)c1         inhibition      %          52
6  O=C(Nc1cccc(F)c1C(=O)O)c1ccc(-c2ccccc2)cc1         inhibition      %          14
